- PARTICULARS: 298.15 K; 101.33 kPa; Liquid
Listing of entries alongside the reported mass density.
REPORTED_PROPERTY: mass density (kg/m3)

chemical_structure=C1CCCC1 readout_unit=kg/m3 endpoint_result=739.74
chemical_structure=c1ccccc1 readout_unit=kg/m3 endpoint_result=873.55
chemical_structure=C1COCCO1 readout_unit=kg/m3 endpoint_result=1027.85
chemical_structure=C1CCCCC1 readout_unit=kg/m3 endpoint_result=773.65
